So I've got a bunch of compounds here, and I need their growth inhibition values.
Procedure text: NCI Yeast Anticancer Drug Screen. Data for the cln2 rad14 strain (AID 165);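 also: 0% = growth equal to vehicle treated cultures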
Condition: S. cerevisiae cln2 rad14 strain, at 5.0 µM (retest, dose inferred, filed as 0.5), stronger effect = higher value
Protocol: Growth inhibition of yeast strains with defined genetic alterations is measured as a screen for potential anti-cancer activity. Selected strains with alterations in DNA damage repair or cell cycle control were exposed to compounds and growth inhibition was measured relative to vehicle treated controls. The strain used in this assay is cln2 rad14
About 79,000 compounds went through this panel and 15% of them were active in at least one assay; those are over-represented in the sample as a whole.
Answers are plain numbers, in %.

Some solved cases for reference:
Compound	Measure name	Numeric readout
O=C(Nc1ccc(Cl)cc1)Nc1cc(Cl)ccc1O	growth inhibition	-8
O=C(O)c1cc2c(cc1CC(Cc1ccc3c(c1)CCCC3)C(=O)O)CCCC2 (stereo unspecified)	growth inhibition	9
CN(Cc1ccccc1)CC(O)c1ccc(/C=C/c2ccc(Cl)cc2)cc1 (stereo unspecified)	growth inhibition	52
CCO/C=C1\C(=O)C=C(C)CC1c1ccc(OC)c(OC)c1OC (stereo unspecified)	growth inhibition	-5
CCOC(=O)NC(=S)Nc1ccsc1	growth inhibition	0

Turning now to a further compound:
I have this compound here, COC(=O)N1C2C=CC(=O)C(C=C2)N1C(=O)OC (stereo unspecified) , and I need its recorded growth inhibition.
1
